# assayed-system: T1, cSNK:BSA conjugate (bovine, head-to-tail cyclized; conjugated to BSA carrier)
# T1 construct: also called BSA-cSNK
# T1 sequence (P02769 25-607 limits assumed): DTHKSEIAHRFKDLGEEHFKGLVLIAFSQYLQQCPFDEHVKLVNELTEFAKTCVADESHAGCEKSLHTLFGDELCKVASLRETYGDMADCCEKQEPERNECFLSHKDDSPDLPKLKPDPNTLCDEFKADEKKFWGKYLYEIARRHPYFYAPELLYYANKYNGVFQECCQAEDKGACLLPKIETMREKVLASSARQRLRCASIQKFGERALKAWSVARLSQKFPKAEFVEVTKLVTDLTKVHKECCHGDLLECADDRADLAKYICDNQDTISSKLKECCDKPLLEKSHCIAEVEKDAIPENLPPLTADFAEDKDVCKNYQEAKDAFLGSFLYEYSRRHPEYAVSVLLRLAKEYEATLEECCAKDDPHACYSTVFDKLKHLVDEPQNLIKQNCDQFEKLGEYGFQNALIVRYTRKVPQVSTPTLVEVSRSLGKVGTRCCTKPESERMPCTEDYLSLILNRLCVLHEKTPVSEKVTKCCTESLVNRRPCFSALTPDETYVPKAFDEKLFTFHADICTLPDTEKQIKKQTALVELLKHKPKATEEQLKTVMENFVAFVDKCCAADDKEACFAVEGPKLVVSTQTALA
# test-description: BLI 2:1 fit, site 2 (KD2); 12.5 nM row
pKd: −log10 of the molar value.
assay-metric: pKd

binder="rehu5E3-IgG4 (antibody, V domains shown, human IgG4/kappa; also called IgG4 rehu version) VH: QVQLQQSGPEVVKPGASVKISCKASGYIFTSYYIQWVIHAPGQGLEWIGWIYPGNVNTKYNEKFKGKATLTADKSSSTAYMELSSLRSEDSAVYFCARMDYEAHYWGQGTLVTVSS VL: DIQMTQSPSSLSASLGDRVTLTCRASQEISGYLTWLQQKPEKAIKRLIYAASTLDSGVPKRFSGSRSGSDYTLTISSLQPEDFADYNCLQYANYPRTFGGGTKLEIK" assay_metric=pKd reported_measurement=8.40
binder="hu5E3-IgG1 (antibody, V domains shown, human IgG1/kappa; also called humanized 5E3 IgG1; IHA variant) VH: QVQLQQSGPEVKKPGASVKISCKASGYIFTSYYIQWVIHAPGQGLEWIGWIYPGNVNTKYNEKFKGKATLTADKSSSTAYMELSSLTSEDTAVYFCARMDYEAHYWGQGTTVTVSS VL: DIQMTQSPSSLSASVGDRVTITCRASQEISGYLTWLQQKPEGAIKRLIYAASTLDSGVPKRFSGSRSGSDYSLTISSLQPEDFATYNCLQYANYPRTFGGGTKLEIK" assay_metric=pKd reported_measurement=8.74
binder="hu5E3-IgG4 (antibody, V domains shown, human IgG4/kappa; also called humanized 5E3 IgG4) VH: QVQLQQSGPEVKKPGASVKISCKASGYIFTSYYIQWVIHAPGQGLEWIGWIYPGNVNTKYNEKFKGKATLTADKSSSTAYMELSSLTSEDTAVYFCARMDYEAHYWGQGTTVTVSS VL: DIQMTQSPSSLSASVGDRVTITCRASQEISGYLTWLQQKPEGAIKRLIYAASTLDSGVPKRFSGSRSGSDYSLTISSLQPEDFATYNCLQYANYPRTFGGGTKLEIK" assay_metric=pKd reported_measurement=8.52
binder="hu5E3-IgG2 (antibody, V domains shown, human IgG2/kappa; also called humanized 5E3 IgG2) VH: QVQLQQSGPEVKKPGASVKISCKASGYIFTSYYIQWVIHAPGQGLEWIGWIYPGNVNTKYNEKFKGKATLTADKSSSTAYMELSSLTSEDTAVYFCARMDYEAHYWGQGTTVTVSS VL: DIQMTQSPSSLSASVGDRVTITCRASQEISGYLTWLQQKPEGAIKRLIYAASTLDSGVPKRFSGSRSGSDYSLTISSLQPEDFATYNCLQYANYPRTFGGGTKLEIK" assay_metric=pKd reported_measurement=8.19
